# target.desc: Laminin 421/521
# procedure.details: phage display, NGS count
The following binders are shown together with reported Count values.
Answer as a number with no unit attached.

Below: 6 binders and their reported Count.
QGWEFQVPARHS = 30
SYTATWSEMSRS = 28
QPTPSQIKFTRT = 28
RLVTASMVSPSF = 95
EGHVWSEYTWGT = 50
CIGGPHRNC = 29

input: Provide Count value for the following binder: CTSKLARHC
output: 45

input: Dear colleague, please send me the reported Count for NGHEVQSRAANR when you can.
output: 29

input: State its Count: WPMMQTR
output: 29

input: Give Count for WRSPLTT
output: 30

input: Indicate the recorded Count value for this binder: EYWHQRGSWFHR
output: 55

input: Provide measured Count value, entry: CKWTQLWGC
output: 40

input: Using known records, supply Count for FPLKIRT
output: 42

input: Name the recorded Count of the binder listed here: NWTHLGVARLQP
output: 36

input: Return reported Count. Input binder: LGYGQGTPHRSN
output: 30

input: Please indicate Count recorded for CTGRISKHC
output: 43

input: Using the record for GHPWTEIDFMSS , state its measured Count.
output: 50

input: Give the value of Count reported for the following: GPLLFRG
output: 30

input: Query Count for HQSLAGVPWSRH
output: 53

input: Name the recorded Count of the item HSTYAPG in your answer.
output: 33

input: Quick one: give measured Count for MTHSAHNSQKTN
output: 117

input: Report measured Count; entry is IDQSGLQKSGMK
output: 29

input: Tell us which Count value is on record for CPMHQSKTC
output: 28

input: State, in one line, measured Count of GRTIHSM
output: 95

input: Return the recorded Count value; entry: SHDVANGTSVRT
output: 29
